experiment: Comparative bioavailability: single oral 150, 300, 450 mg MNTX tablets vs 12 mg SC injection, crossover
Assay type: in vivo, human
testConditions: human, plasma; 12 mg SC injection; read-out: median Tmax (converted)
quantityKind: Tmax (min)
Expressed in min, but write only the number.

Requested field: Tmax. Item: C[N@+]1(CC2CC2)CC[C@]23c4c5ccc(O)c4O[C@H]2C(=O)CC[C@@]3(O)[C@H]1C5.[Br-]
15

---

experiment: Food effect study: single oral 450 mg MNTX fasted vs high-fat breakfast, 2-period crossover
Format: in vivo, human
testConditions: both sexes, human, plasma, oral, 450 mg, 450 mg Single-Dose Fasted, mean; read-out: AUClast
quantityKind: AUC(0-t) (ng·h/mL)
Expressed in ng·h/mL, but write only the number.

Requested field: AUC(0-t). Item: C[N@+]1(CC2CC2)CC[C@]23c4c5ccc(O)c4O[C@H]2C(=O)CC[C@@]3(O)[C@H]1C5.[Br-] [MNTX]
361

---

experiment: Study A: single and multiple dose pharmacokinetics after subcutaneous 12 mg methylnaltrexone
Assay type: in vivo, human
testConditions: human, plasma, sc, 12 mg, 12 mg SC Injection, Day 7, mean; read-out: Cmax
quantityKind: Cmax (ng/mL)
Expressed in ng/mL, but write only the number.

Requested field: Cmax. Item: C[N@+]1(CC2CC2)CC[C@]23c4c5ccc(O)c4O[C@H]2C(=O)CC[C@@]3(O)[C@H]1C5.[Br-]
119

---

experiment: Study A: single and multiple dose pharmacokinetics after subcutaneous 12 mg methylnaltrexone
Type: in vivo, human
testConditions: human, plasma, subcutaneous; 12 mg SC vs 24 mg IV infusion, cross-study; read-out: bioavailability of subcutaneous injection relative to short-term infusion
quantityKind: bioavailability (%)
Expressed in %, but write only the number.

Requested field: bioavailability. Item: C[N@+]1(CC2CC2)CC[C@]23c4c5ccc(O)c4O[C@H]2C(=O)CC[C@@]3(O)[C@H]1C5.[Br-]
112

---

experiment: Comparative bioavailability: single oral 150, 300, 450 mg MNTX tablets vs 12 mg SC injection, crossover
Format: in vivo, human
testConditions: human, plasma, po, 300 mg, MNTX 300 mg Tablet, single oral dose, mean; read-out: AUC0-t
quantityKind: AUC(0-t)

Requested field: AUC(0-t). Item: C[N@+]1(CC2CC2)CC[C@]23c4c5ccc(O)c4O[C@H]2C(=O)CC[C@@]3(O)[C@H]1C5.[Br-]
229 ng·h/mL

---

experiment: Comparative bioavailability: single oral 150, 300, 450 mg MNTX tablets vs 12 mg SC injection, crossover
Type: in vivo, human
testConditions: human, plasma, po, 450 mg, MNTX 450 mg Tablet, single oral dose, harmonic mean
quantityKind: half-life (h)
Expressed in h, but write only the number.

Requested field: half-life. Item: C[N@+]1(CC2CC2)CC[C@]23c4c5ccc(O)c4O[C@H]2C(=O)CC[C@@]3(O)[C@H]1C5.[Br-] [MNTX]
16.6

---

experiment: Comparative bioavailability: single oral 150, 300, 450 mg MNTX tablets vs 12 mg SC injection, crossover
Assay type: in vivo, human
testConditions: human, plasma, oral, 150 mg, MNTX 150 mg Tablet; read-out: AUC0-∞, Geometric LSM
quantityKind: AUC(0-inf) (ng·h/mL)
Expressed in ng·h/mL, but write only the number.

Requested field: AUC(0-inf). Item: C[N@+]1(CC2CC2)CC[C@]23c4c5ccc(O)c4O[C@H]2C(=O)CC[C@@]3(O)[C@H]1C5.[Br-] [MNTX]
96.7

---

experiment: Study B: single and multiple dose pharmacokinetics after 20-minute intravenous infusion of 24 mg methylnaltrexone
Assay type: in vivo, human
testConditions: human, in vivo, iv, 24 mg, 24 mg IV infusion, Day 1, mean; read-out: Cmax
quantityKind: Cmax (ng/mL)
Expressed in ng/mL, but write only the number.

Requested field: Cmax. Item: C[N@+]1(CC2CC2)CC[C@]23c4c5ccc(O)c4O[C@H]2C(=O)CC[C@@]3(O)[C@H]1C5.[Br-] [MNTX]
533

---

experiment: Comparative bioavailability: single oral 150, 300, 450 mg MNTX tablets vs 12 mg SC injection, crossover
Format: in vivo, human
testConditions: human, plasma, po, 450 mg, MNTX 450 mg Tablet, single oral dose, mean; read-out: AUC0-∞
quantityKind: AUC(0-inf) (ng·h/mL)
Expressed in ng·h/mL, but write only the number.

Requested field: AUC(0-inf). Item: C[N@+]1(CC2CC2)CC[C@]23c4c5ccc(O)c4O[C@H]2C(=O)CC[C@@]3(O)[C@H]1C5.[Br-]
373

---

experiment: Study C: single and multiple dose pharmacokinetics of MNTX and metabolites, MNTX 450 mg PO x 7 days
Format: in vivo, human
testConditions: human, plasma, po, 450 mg, 450 mg Tablets oral, Day 7, mean; read-out: Cmax
quantityKind: Cmax (ng/mL)
Expressed in ng/mL, but write only the number.

Requested field: Cmax. Item: C[N@+]1(CC2CC2)CC[C@]23c4c5ccc(O)c4O[C@H]2C(=O)CC[C@@]3(O)[C@H]1C5.[Br-] [MNTX]
45.5

---

experiment: Comparative bioavailability: single oral 150, 300, 450 mg MNTX tablets vs 12 mg SC injection, crossover
Format: in vivo, human
testConditions: human, plasma; oral 450 mg vs 12 mg SC, arithmetic mean AUC0-∞; read-out: dose-normalized bioavailability of oral MNTX relative to SC MNTX
Excerpt: The oral dosage levels and formulation of MNTX evaluated here were the same as those in a phase 3 study of oral MNTX tablets, with the exception of a nonfunctional coating on the MNTX tablets. […] The pharmacokinetics of the uncoated tablet used in the phase 3 study and the coated tablets used in the current study were compared in a separate study. […] A single-dose pharmacokinetic profile of oral MNTX tablets was also planned for evaluation in this study. […]
quantityKind: bioavailability (%)
Expressed in %, but write only the number.

Requested field: bioavailability. Item: C[N@+]1(CC2CC2)CC[C@]23c4c5ccc(O)c4O[C@H]2C(=O)CC[C@@]3(O)[C@H]1C5.[Br-] [MNTX]
3.7

---

experiment: Comparative bioavailability: single oral 150, 300, 450 mg MNTX tablets vs 12 mg SC injection, crossover
Assay type: in vivo, human
testConditions: human, plasma, po, 300 mg, MNTX 300 mg Tablet, single oral dose, mean; read-out: Cmax
quantityKind: Cmax (ng/mL)
Expressed in ng/mL, but write only the number.

Requested field: Cmax. Item: C[N@+]1(CC2CC2)CC[C@]23c4c5ccc(O)c4O[C@H]2C(=O)CC[C@@]3(O)[C@H]1C5.[Br-]
26.2

---

experiment: Comparative bioavailability: single oral 150, 300, 450 mg MNTX tablets vs 12 mg SC injection, crossover
Assay type: in vivo, human
testConditions: human, plasma, po, 150 mg, MNTX 150 mg Tablet, single oral dose, harmonic mean
quantityKind: half-life
Record the result as number plus unit.

Requested field: half-life. Item: C[N@+]1(CC2CC2)CC[C@]23c4c5ccc(O)c4O[C@H]2C(=O)CC[C@@]3(O)[C@H]1C5.[Br-] [MNTX]
14 h

---

experiment: Study B: single and multiple dose pharmacokinetics after 20-minute intravenous infusion of 24 mg methylnaltrexone
Assay type: in vivo, human
testConditions: human, in vivo, iv, 24 mg, 24 mg IV infusion, Day 1, mean
quantityKind: AUC(0-inf)
Record the result as number plus unit.

Requested field: AUC(0-inf). Item: C[N@+]1(CC2CC2)CC[C@]23c4c5ccc(O)c4O[C@H]2C(=O)CC[C@@]3(O)[C@H]1C5.[Br-] [MNTX]
396 ng·h/mL

---

experiment: Comparative bioavailability: single oral 150, 300, 450 mg MNTX tablets vs 12 mg SC injection, crossover
Type: in vivo, human
testConditions: human, plasma, sc, 12 mg, MNTX 12 mg SC Injection; read-out: Cmax, Geometric LSM
quantityKind: Cmax (ng/mL)
Expressed in ng/mL, but write only the number.

Requested field: Cmax. Item: C[N@+]1(CC2CC2)CC[C@]23c4c5ccc(O)c4O[C@H]2C(=O)CC[C@@]3(O)[C@H]1C5.[Br-]
164

---

experiment: Study A: single and multiple dose pharmacokinetics after subcutaneous 12 mg methylnaltrexone
Type: in vivo, human
testConditions: human, plasma, sc, 12 mg, 12 mg SC Injection, Day 1, mean; read-out: AUC0-24
quantityKind: AUC(0-t) (ng·h/mL)
Expressed in ng·h/mL, but write only the number.

Requested field: AUC(0-t). Item: C[N@+]1(CC2CC2)CC[C@]23c4c5ccc(O)c4O[C@H]2C(=O)CC[C@@]3(O)[C@H]1C5.[Br-] [MNTX]
218

---

experiment: Comparative bioavailability: single oral 150, 300, 450 mg MNTX tablets vs 12 mg SC injection, crossover
Format: in vivo, human
testConditions: human, plasma; MNTX 300 mg Tablet, single oral dose, median; read-out: Tmax
quantityKind: Tmax (h)
Expressed in h, but write only the number.

Requested field: Tmax. Item: C[N@+]1(CC2CC2)CC[C@]23c4c5ccc(O)c4O[C@H]2C(=O)CC[C@@]3(O)[C@H]1C5.[Br-]
1.5
